assay_target: Fructose-1,6-bisphosphatase 1 (Homo sapiens, UniProt P09467, D128A)
Sequence (P09467 2-338 D128A limits assumed): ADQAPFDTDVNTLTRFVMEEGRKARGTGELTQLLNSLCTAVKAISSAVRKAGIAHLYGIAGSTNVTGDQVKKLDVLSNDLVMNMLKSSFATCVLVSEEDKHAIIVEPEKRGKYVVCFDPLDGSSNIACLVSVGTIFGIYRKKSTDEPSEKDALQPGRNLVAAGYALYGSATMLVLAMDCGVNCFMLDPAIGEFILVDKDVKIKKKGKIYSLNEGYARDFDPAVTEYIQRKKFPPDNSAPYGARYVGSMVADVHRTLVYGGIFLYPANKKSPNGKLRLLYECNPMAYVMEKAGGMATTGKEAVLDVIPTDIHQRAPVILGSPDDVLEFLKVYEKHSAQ
test_protocol: Inhibition of human FBPase D127A mutant expressed in Escherichia coli BL21 (DE3) using FBP as substrate incubated for 5 mins by malachite green dye based spectrophotometry
measurement_kind: IC50 (µM)

smiles_notation	assay_target	measurement_kind	observed_value
O=[N+]([O-])/C=C/c1cccc(F)c1	Fructose-1,6-bisphosphatase 1 (Homo sapiens, UniProt P09467, D128A)	IC50	4
N#Cc1ccc(/C=C/[N+](=O)[O-])cc1	Fructose-1,6-bisphosphatase 1 (Homo sapiens, UniProt P09467, D128A)	IC50	2

* * *

assay_target: Fructose-1,6-bisphosphatase 1 (Homo sapiens, UniProt P09467, R255A)
Sequence (P09467 2-338 R255A limits assumed): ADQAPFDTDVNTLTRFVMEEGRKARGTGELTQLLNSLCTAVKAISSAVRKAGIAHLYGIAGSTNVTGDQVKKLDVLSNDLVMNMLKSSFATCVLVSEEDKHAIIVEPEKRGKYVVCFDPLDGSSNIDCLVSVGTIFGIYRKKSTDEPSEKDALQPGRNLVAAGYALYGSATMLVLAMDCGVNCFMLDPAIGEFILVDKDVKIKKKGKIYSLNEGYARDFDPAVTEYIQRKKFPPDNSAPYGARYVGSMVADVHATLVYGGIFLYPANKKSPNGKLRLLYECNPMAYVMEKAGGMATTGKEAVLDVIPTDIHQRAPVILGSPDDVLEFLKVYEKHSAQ
test_protocol: Inhibition of human FBPase R254A mutant expressed in Escherichia coli BL21 (DE3) using FBP as substrate incubated for 5 mins by malachite green dye based spectrophotometry

smiles_notation	IC50
O=[N+]([O-])/C=C/c1cccc(F)c1	8.4 µM
CCOC(=O)C(C)(C)Oc1ccc(F)c(/C=C/[N+](=O)[O-])c1	12 µM
N#Cc1ccc(/C=C/[N+](=O)[O-])cc1	3.6 µM

* * *

assay_target: Fructose-1,6-bisphosphatase 1 (Homo sapiens)
test_protocol: Inhibition of human FBPase expressed in Escherichia coli BL21 (DE3) at 500 uM using FBP as substrate incubated for 5 mins by malachite green dye based spectrophotometry relative to control
Label t when inhibition >= 20%; otherwise f.

compound	assay_target	discrete_label
C=C(CC)C(=O)c1ccc(OCC(=O)O)c(Cl)c1Cl	Fructose-1,6-bisphosphatase 1 (Homo sapiens)	t
S=C=NCc1ccccc1	Fructose-1,6-bisphosphatase 1 (Homo sapiens)	f
COC(=O)/C=C/C(=O)OC	Fructose-1,6-bisphosphatase 1 (Homo sapiens)	t
O=C(O)/C=C/C(=O)O	Fructose-1,6-bisphosphatase 1 (Homo sapiens)	f
O=C1C=CCC1	Fructose-1,6-bisphosphatase 1 (Homo sapiens)	t
C=CC(=O)Nc1ccccc1	Fructose-1,6-bisphosphatase 1 (Homo sapiens)	f
CC(=O)C=O	Fructose-1,6-bisphosphatase 1 (Homo sapiens)	f
O=C/C=C/c1ccccc1	Fructose-1,6-bisphosphatase 1 (Homo sapiens)	f
c1ccc(C2CO2)cc1 (centres undefined)	Fructose-1,6-bisphosphatase 1 (Homo sapiens)	t

* * *

assay_target: Fructose-1,6-bisphosphatase 1 (Homo sapiens, UniProt P09467, N126A)
Sequence (P09467 2-338 N126A limits assumed): as the sequence (P09467 2-338 R255A limits assumed) above, with N125A, A254R counted along it
test_protocol: Inhibition of human FBPase N125A mutant expressed in Escherichia coli BL21 (DE3) using FBP as substrate incubated for 5 mins by malachite green dye based spectrophotometry

smiles_notation	IC50
O=[N+]([O-])/C=C/c1cccc(F)c1	> 200 µM
CCOC(=O)C(C)(C)Oc1ccc(F)c(/C=C/[N+](=O)[O-])c1	> 300 µM
N#Cc1ccc(/C=C/[N+](=O)[O-])cc1	> 200 µM

* * *

assay_target: Fructose-1,6-bisphosphatase 1 (Homo sapiens, UniProt P09467, C184S)
Sequence (P09467 2-338 C184S limits assumed): as the sequence (P09467 2-338 R255A limits assumed) above, with C183S, A254R counted along it
test_protocol: Inhibition of human FBPase C183S mutant expressed in Escherichia coli BL21 (DE3) using FBP as substrate incubated for 5 mins by malachite green dye based spectrophotometry
pIC50: −log10 of the molar value.
Below, each entry is listed with its recorded pIC50.

smiles_notation	assay_target	pIC50
N#Cc1ccc(/C=C/[N+](=O)[O-])cc1	Fructose-1,6-bisphosphatase 1 (Homo sapiens, UniProt P09467, C184S)	6.36
O=[N+]([O-])/C=C/c1cccc(F)c1	Fructose-1,6-bisphosphatase 1 (Homo sapiens, UniProt P09467, C184S)	6.04
CCOC(=O)C(C)(C)Oc1ccc(F)c(/C=C/[N+](=O)[O-])c1	Fructose-1,6-bisphosphatase 1 (Homo sapiens, UniProt P09467, C184S)	6.01

* * *

assay_target: Fructose-1,6-bisphosphatase 1 (Homo sapiens, UniProt P09467, S125A)
Sequence (P09467 2-338 S125A limits assumed): as the sequence (P09467 2-338 R255A limits assumed) above, with S124A, A254R counted along it
test_protocol: Inhibition of human FBPase S124A mutant expressed in Escherichia coli BL21 (DE3) using FBP as substrate incubated for 5 mins by malachite green dye based spectrophotometry
pIC50: −log10 of the molar value.
Below, each entry is listed with its recorded pIC50.

smiles_notation	pIC50
CCOC(=O)C(C)(C)Oc1ccc(F)c(/C=C/[N+](=O)[O-])c1	4.62
O=[N+]([O-])/C=C/c1cccc(F)c1	4.92
N#Cc1ccc(/C=C/[N+](=O)[O-])cc1	5.85
